Below, each of the molecules is paired with its reported pEC50 value.
tested on: Human immunodeficiency virus 1; assay: Inhibitory effects on HIV-1 induced syncytium formation in C8166 cells; format: functional, organism-based; settings: Human immunodeficiency virus 1, C8166
Lab note: report pEC50 as minus log10 of the concentration in molar units, number only.

Sample records with pEC50:
- entry.smiles: "CC1(C)S[C@H]([C@H](NC(=O)Cc2ccccc2)C(=O)NCC(F)(F)F)N[C@H]1C(=O)NCCNC(=O)[C@@H]1N[C@@H]([C@H](NC(=O)Cc2ccccc2)C(=O)NCC(F)(F)F)SC1(C)C"
  target.desc: "Human immunodeficiency virus 1"
  measured.endpoint: "pEC50"
  value.reported: 6.66
- entry.smiles: "CCNC(=O)[C@@H](NS(=O)(=O)Cc1ccccc1)[C@@H]1N[C@@H](C(=O)NCCNC(=O)[C@@H]2N[C@@H]([C@H](NS(=O)(=O)Cc3ccccc3)C(=O)NCC)SC2(C)C)C(C)(C)S1"
  target.desc: "Human immunodeficiency virus 1"
  measured.endpoint: "pEC50"
  value.reported: 4.89
- entry.smiles: "CC(C)(C)NC(=O)[C@@H]1C[C@@H]2CCCC[C@@H]2CN1C[C@@H](O)[C@H](Cc1ccccc1)NC(=O)[C@H](CC(N)=O)NC(=O)c1ccc2ccccc2n1"
  target.desc: "Human immunodeficiency virus 1"
  measured.endpoint: "pEC50"
  value.reported: 9.22
- entry.smiles: "CN(C)C(=O)[C@@H](NC(=O)Cc1ccccc1)[C@@H]1N[C@@H](C(=O)NCCNC(=O)[C@@H]2N[C@@H]([C@H](NC(=O)Cc3ccccc3)C(=O)N(C)C)SC2(C)C)C(C)(C)S1"
  target.desc: "Human immunodeficiency virus 1"
  measured.endpoint: "pEC50"
  value.reported: 5.77
- entry.smiles: "CN(C)c1ccc(CNC(=O)[C@@H](NC(=O)c2ccccc2-c2ccccc2)[C@@H]2N[C@@H](C(=O)NCCNC(=O)[C@@H]3N[C@@H]([C@H](NC(=O)c4ccccc4-c4ccccc4)C(=O)NCc4ccc(N(C)C)cc4)SC3(C)C)C(C)(C)S2)cc1"
  target.desc: "Human immunodeficiency virus 1"
  measured.endpoint: "pEC50"
  value.reported: 7.52

The recorded pEC50 for entry CC1(C)S[C@H]([C@H](NC(=O)Cc2ccccc2)C(=O)NCC2CCCCC2)N[C@H]1C(=O)NCCNC(=O)[C@@H]1N[C@@H]([C@H](NC(=O)Cc2ccccc2)C(=O)NCC2CCCCC2)SC1(C)C equals 7.22

The recorded pEC50 for entry Cc1cn([C@H]2C[C@H](N=[N+]=[N-])[C@@H](CO)O2)c(=O)[nH]c1=O equals 7.52

---

assay: Volume of distribution in Cynomolgus monkey at a dose of 5 mg/kg given intravenously; format: ADME, organism-based, Macaca fascicularis; set-up: dose 5 mg/kg, route intravenous; conditions: in vivo, iv, read-out: Distribution
measured.endpoint: Vd (L)
Numbers only; they are read as L.

The recorded Vd for entry CCNC(=O)[C@@H](NC(=O)Cc1ccccc1)[C@@H]1N[C@@H](C(=O)NCCNC(=O)[C@@H]2N[C@@H]([C@H](NC(=O)Cc3ccccc3)C(=O)NCC)SC2(C)C)C(C)(C)S1 equals 17

---

test: Half-life in CD rat at a dose of 5 mg/kg given intravenously; format: ADME, organism-based; parameters: dose 5 mg/kg, route intravenous; details: in vivo, iv
measured.endpoint: half-life (h)
Numbers only; they are read as h.

The recorded half-life for entry CCNC(=O)[C@@H](NC(=O)Cc1ccccc1)[C@@H]1N[C@@H](C(=O)NCCNC(=O)[C@@H]2N[C@@H]([C@H](NC(=O)Cc3ccccc3)C(=O)NCC)SC2(C)C)C(C)(C)S1 equals 5
